Biological target: T1, Human CD137 ECD (human)
T1 construct: also called 4-1BB
T1 sequence (chain, as listed by the source limits assumed): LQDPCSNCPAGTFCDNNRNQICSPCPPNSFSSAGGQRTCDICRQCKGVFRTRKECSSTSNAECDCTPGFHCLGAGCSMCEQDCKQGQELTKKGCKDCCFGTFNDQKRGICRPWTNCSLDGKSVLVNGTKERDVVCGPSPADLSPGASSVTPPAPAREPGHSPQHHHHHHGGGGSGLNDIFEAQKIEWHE
Assay: single mutant vs template dBBDu183H
Measured Quantity: fold change of affinity
Please answer in the form of a number followed by its unit of measurement.

**Q:** Quick one: fold change of affinity of H183/L072 VH A98L (antibody, name in Kabat numbering, V domains shown) VH: QVQLVESGGGLVQPGRSLRLSCAASGFTFSNAWMHWVRQAPGKGLEWVAQIKDKGNAYAAYYAPSVKGRFTISRDDSKNSIYLQMNSLKTEDTAVYYCHYVHYLSASTVLPAFGVDAWGQGTTVTVSS VL: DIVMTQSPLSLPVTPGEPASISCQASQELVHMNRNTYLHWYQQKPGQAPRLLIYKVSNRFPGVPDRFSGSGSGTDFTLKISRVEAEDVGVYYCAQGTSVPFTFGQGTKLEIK ?
**A:** 0 fold

**Q:** Quick one: fold change of affinity of H183/L072 VH K52bM (antibody, name in Kabat numbering, V domains shown) VH: QVQLVESGGGLVQPGRSLRLSCAASGFTFSNAWMHWVRQAPGKGLEWVAQIKDMGNAYAAYYAPSVKGRFTISRDDSKNSIYLQMNSLKTEDTAVYYCHYVHYASASTVLPAFGVDAWGQGTTVTVSS VL: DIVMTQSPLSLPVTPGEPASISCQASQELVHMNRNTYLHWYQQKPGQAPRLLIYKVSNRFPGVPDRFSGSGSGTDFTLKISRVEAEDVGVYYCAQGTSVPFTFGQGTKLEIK ?
**A:** 0.6 fold

Reference source: patent US20210388087A1
